System: COLO 205
Assay: NCI tumour cell line growth inhibition, 48 h
Activity calls are given as the source filed them. Cut-off read from the data, not from the text of the source: active = GI50 up to about 1.1 µM and inactive = higher.
Collected GI50 values appear next to each entry.

CCCCP(CCCC)(CCCC)=C(C(=O)OC)C(C(=O)OC)=C1SC(C(=O)OC)=C(C(=O)OC)S1
17 µM (inactive)

Task: // Input: CCCCSc1nsc(N(C(=O)c2ccccc2)C(=O)c2ccccc2)n1 . Output its GI50 only.
Result: 20.4 µM (inactive)

Task: For CC(=O)O[C@H]1/C(=C/c2ccc(N(C)C)cc2)C[C@H]2[C@@H]3CC=C4C[C@@H](N5CCCC5)CC[C@]4(C)[C@H]3CC[C@]12C , write its GI50.
Result: > 100 µM (inactive)

Task: Supply GI50 value. Item: COc1cc2c(cc1OC)[C@H](C)N1CCc3cc(OC)c(OC)cc3[C@@H]1C2
Result: > 100 µM (inactive)

Task: Indicate its recorded GI50; the molecule in question is Cc1ccc(/N=C2\N=C(N3CC(C)OC(C)C3)c3ccccc32)cc1 (stereo not given)
Result: 40.3 µM (inactive)

---

GI50 values for the compounds below.
Test system: TK-10
Experiment: NCI tumour cell line growth inhibition, 48 h
Activity calls are given as the source filed them. Rule as the data show it: active = GI50 up to about 1.1 µM and inactive = higher.

Solved entries:
CCOC(=O)C(CCC(N)=O)(CCC(=O)OC)C(=O)OCC
> 100 µM (inactive)
c1ccc2c(CCNC3=NCCO3)cccc2c1
> 10 µM (inactive)
CC(C)c1c(O)c(O)c2c(c1O)C(=O)C(O)=C1C(C)(C)CCC[C@@]12C
3.86 µM (inactive)
CCc1c(C)[nH]c2c1/C(=N/N=C1\CCCc3[nH]c(C)c(CC)c31)CCC2
49.1 µM (inactive)
Nc1n[nH]c(Nc2ccc(Cl)cc2)c1P(=O)(c1ccccc1)c1ccccc1
30.1 µM (inactive)

Task: Find GI50 for Cc1ccc(-c2c(C#N)c(S)n(NS(=O)(=O)c3ccc(C)cc3)c(=O)c2C#N)cc1 on TK-10 and write it down.
Result: 19.8 µM (inactive)

Task: Please report the measured GI50 for Cn1ccnc1C(c1nccn1C)C(C)(C)[N+](=O)[O-] tested on TK-10.
Result: > 100 µM (inactive)

Task: Provide TK-10 GI50 reading for CCOC(=O)c1nc2ccccc2nc1Oc1ccc(C(=O)OC)cc1 .
Result: > 100 µM (inactive)

Task: Report measured GI50 on TK-10; entry: N#CCCN(CCC#N)c1ccc(/C=C2\SC(=S)NC2=O)cc1
Result: 85.3 µM (inactive)

Task: Please report the measured GI50 for c1csc(-c2cc(-c3ccsc3)c(-c3cccs3)s2)c1 tested on TK-10.
Result: > 100 µM (inactive)

Task: Look up and report measured GI50 (TK-10) for the following compound: COc1ccc(C(Cl)=C(c2ccc(OCCN(C)C)cc2)c2ccc(OCCN(C)C)cc2)cc1
Result: 17.1 µM (inactive)

Task: Find the measured GI50 of COc1ccc(-n2c(CCC(=O)O)nc3c2C(=O)c2ccccc2C3=O)cc1 with TK-10 as test system.
Result: > 100 µM (inactive)

Task: Specify the recorded GI50 for Cc1nc2cccc(F)c2c(=O)n1-c1nnc(C2CC2)s1 , system: TK-10.
Result: > 10 µM (inactive)

Task: Recall the reported GI50 of Cc1ccccc1NC(=O)C(=O)CC(=O)C1CCOC1=O (centres undefined) on TK-10 and write it down.
Result: > 100 µM (inactive)

---

Tested on: NCI-H522
Test: NCI tumour cell line growth inhibition, 48 h
Activity calls are given as the source filed them. No stated cut-off is given here; in the data, active = GI50 up to about 1.1 µM and inactive = higher.
Select the matching outcome among t (active), f (inactive)

Example results:
Nc1ccccc1SCc1csc(-c2ccc(Cl)cc2)n1
f
CN(C)c1ccc(/C=C/c2cc(-c3ccccc3)[n+](C)n2-c2ccccc2)cc1
t
CC(C)c1ccc2c(c1)[C@@]1(C)CC[C@H](C)C(C)(C)C1CC2 (stereo partly specified)
f

Task: GET /call?item= CC1(C)O[C@@H](CCl)C[C@H](C#N)O1 returns the recorded outcome of this test.
Result: f

Task: How did this test come out for Fc1ccc(Oc2nc3ccccc3nc2-c2ccccc2)cc1 ?
Result: f

Task: # outcome recorded in this test, key = COc1ccc(NC(C(N)=O)c2cc3cc(Br)ccc3nc2Cl)cc1 (stereo unspecified)
Result: f

Task: I would be grateful if you could indicate the recorded call for CC(=O)Nc1ccc(Sc2nnc(NC(C)=O)s2)cc1 .
Result: f

Task: Look up the recorded call for C/C(=C\C(C[C@](C)(O)C(O)CCC#C[Si](C)(C)C)S(=O)(=O)c1ccccc1)CC/C=C/CO[Si](C)(C)C(C)(C)C (stereo partly specified) in this test.
Result: f

Task: Hi, do you know how O=C1c2ccccc2C(=O)c2c1ccc(C(=O)O)c2-c1ccc2ccccc2c1 came out in this test?
Result: f

---

Let's look at some compounds and their measured GI50.
Tested on: DLD-1
Experiment: NCI tumour cell line growth inhibition, 48 h
Calls of active or inactive are those of the source. No stated cut-off is given here; in the data, active = GI50 up to about 1.1 µM and inactive = higher.

Example entries and their recorded answers appear below.
CC(N)Cc1ccc(Cl)cc1 (stereo not given)
> 100 µM (inactive)
Cc1cc(O)c2c(=O)c3c(O)cc(O)c4c5c(O)cc(O)c6c(=O)c7c(O)cc(C)c8c1c2c(c34)c(c78)c65 [HYPERICIN]
21.3 µM (inactive)
CC(C)(C)N/N=C(\C(=O)Nc1cccc(Cl)c1)C1C(=O)Nc2ccccc2[S+]1[O-] (stereo not given)
> 100 µM (inactive)

Task: Check the records and state GI50 for COc1ccc2c(c1)C(=O)N1CCOC1C2C(=O)O (stereo not given)
Result: > 100 µM (inactive)

Task: Write down GI50 measured for item CC1=C(C(=O)Nc2ccccc2)C(c2ccccc2)C(C(=O)Nc2ccccc2)=C(C)N1
Result: 52.7 µM (inactive)

Task: Please list GI50 recorded for the compound O=C1OCC/C1=N/O
Result: > 100 µM (inactive)

Task: For the compound COC(=O)c1nc(NN)cc(O)c1CCCCCc1c(O)nc(NN)nc1C(=O)OC , give its measured GI50 value.
Result: > 100 µM (inactive)

Task: Give the reported GI50 for this compound. Cc1ccccc1NC(=O)C(=O)CC(=O)C1CCOC1=O (stereo not given)
Result: > 100 µM (inactive)

Task: Supply GI50 value. Item: CCc1c(C)[nH]c2c1/C(=N/N=C1\CCCc3[nH]c(C)c(CC)c31)CCC2
Result: > 100 µM (inactive)

Task: Using known records, supply GI50 for CCN(CC)CC1CCCCN1CC(=O)N1c2cc(Cl)ccc2NC(=O)CC1C (stereo not given)
Result: > 100 µM (inactive)

---

Test system: SW-620
Assay: NCI tumour cell line growth inhibition, 48 h
Activity calls are given as the source filed them. Rule as the data show it: active = GI50 up to about 1.1 µM and inactive = higher.
Listed molecules paired with reported GI50

Known results for molecules:
CCN(CC)CCC(=O)NC1c2ccccc2Oc2c(C)cccc21 (configuration not stated)
> 100 µM (inactive)
CCOC(=O)COc1ccc(OC)c2c1C(=O)CCC2
> 100 µM (inactive)
CC12CC(=O)C3C(C(=O)C1)C32C (configuration not stated)
> 100 µM (inactive)
O=C1CSC(c2cc3cc(Br)ccc3nc2Cl)N1c1ccc(F)c(Cl)c1 (configuration not stated)
28.5 µM (inactive)
CCCC[C@H]1C(=O)O[C@H](C)[C@H](NC(=O)c2cccc(NC=O)c2O)C(=O)O[C@@H](C)[C@@H]1OC(=O)CC(C)C [ANTIMYCIN A3]
8.18 µM (inactive)

Task: Specify measured GI50 for CN(CC(=O)O)S(=O)(=O)c1ccc2ccccc2c1 .
Result: > 100 µM (inactive)

Task: Please look at this molecule and report its GI50: Cc1cc(O)c2c(=O)c3c(O)cc(O)c4c5c(O)cc(O)c6c(=O)c7c(O)cc(C)c8c1c2c(c34)c(c78)c65
Result: 51.9 µM (inactive)

Task: For the molecule COC(=O)[C@@H]1C=C[C@@H](C#N)n2c(=O)n(-c3ccccc3)c(=O)n21 , give its measured GI50 value.
Result: 41.9 µM (inactive)

Task: Give the measured GI50 for Fc1ccc2c(c1)cc1ccc3cccc4ccc2c1c34
Result: > 100 µM (inactive)

Task: Kindly indicate its recorded GI50. Item: COC(=O)c1ccccc1/C=C1\Cc2ccc3ccccc3c2C1C (configuration not stated)
Result: 93.3 µM (inactive)

Task: Look up and state reported GI50 for O=C1c2ccccc2C(=O)c2c1ccc(C(=O)O)c2-c1ccc2ccccc2c1
Result: 29.4 µM (inactive)

---

Reported GI50 values for a set of molecules
System: ACHN
Assay: NCI tumour cell line growth inhibition, 48 h
Calls of active or inactive are those of the source. No stated cut-off is given here; in the data, active = GI50 up to about 1.1 µM and inactive = higher.

Below: 2 molecules and their reported GI50.
C/C(=N\Nc1nc2ccccc2n1C)c1cc2ccccc2cn1
< 0.01 µM (active)
CC(C)=CC[C@]12CCN[C@H]1N(S(=O)(=O)c1ccccc1)c1ccccc12
21.1 µM (inactive)

Task: Identify measured GI50 obtained with ACHN for COc1ccc(N2C(=O)CC(c3c[nH]c4ccccc34)C2=O)cc1 (stereo not drawn) .
Result: > 100 µM (inactive)

Task: Specify GI50 for CC1(C)OC(=S)N(c2ccccc2)C12C=Cc1cc3ccccc3cc1O2 (stereo not drawn) , system ACHN.
Result: > 100 µM (inactive)
